TARGET_OR_SYSTEM: N1L (Vaccinia virus, UniProt Q49PX0)
Sequence (Q49PX0 whole entry): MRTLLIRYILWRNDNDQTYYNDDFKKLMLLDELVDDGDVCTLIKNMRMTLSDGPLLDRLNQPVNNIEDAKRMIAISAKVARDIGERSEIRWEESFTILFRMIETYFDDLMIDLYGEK
EXPERIMENT_DESCRIPTION: Displacement of FITC-conjugated BH3-Bak peptide from Vaccinia virus recombinant N1L expressed in Escherichia coli BL21 (DE3) by fluorescence polarization assay
Design: species or system Orthopoxvirus vaccinia
MEASUREMENT_LABEL: pIC50
Numbers only, as −log10 of the molar value.

# example entries with known answers
# MOLECULE, pIC50
rows = [
    ("COc1cc(-c2ccc3cc(OC)c(OC)c(OC)c3c2)cc(OC)c1OC", 6.05),
    ("COc1cc(C(c2ccc(O)c(OC)c2)c2ccc(O)c(OC)c2)ccc1O", 5.06),
    ("COc1ccc2ccccc2c1-c1c(O)ccc2ccccc12", 5.82),
    ("COc1ccc(/C(=N/c2ccc(C)cc2)c2ccccc2)cc1", 5.77),
    ("Oc1cc(C(c2ccccc2)c2ccccc2)c2ccccc2c1O", 6.22),
    ("COc1ccc(C(C)c2cc(OC)c(OC)c(OC)c2)cc1 (configuration not stated)", 5.25),
    ("Oc1ccc(/C=C/c2cc(O)cc(O)c2)cc1", 4.66),
    ("COc1ccc(CCc2cc(OC)c(O)c(OC)c2)cc1", 5.30),
]

Each molecule below has a reported value. Please supply its pIC50.
1. COc1cc(C(c2ccccc2)c2ccccc2)c2ccccc2c1O
2. Oc1ccc(/C=N/c2ccccc2/N=C/c2ccc(O)c(O)c2)cc1O

OUTPUT:
1: 5.74; 2: 5.92

Each molecule below has a reported value. Please supply its pIC50.
1. Oc1cc(Cc2ccccc2)c(Cc2ccccc2)cc1O
2. COc1cc(C(=N\c2ccccc2)/C(=N/c2ccccc2)c2cc(OC)c(OC)c(OC)c2)cc(OC)c1OC

OUTPUT:
6.05
5.62
